meta.source: patent US4423076A

Assay: Toxicity of single-dose NCNU ip in normal mice (deaths)
Parameters: species or system CDFl mice
Details: in vivo, 20.0 mg/mouse ip, at day 1
Quantity kind: mortality at 24 h (%)

* CC(C)(C)CNC(=O)N(CCCl)N=O [NCNU] | 100

---

Assay: Toxicity of single-dose NCNU ip in normal mice (deaths)
Design: species or system CDFl mice
Conditions: mouse, in vivo, 200 mg/kg ip, at day 9
Quantity kind: mortality at 216 h (%)

- CC(C)(C)CNC(=O)N(CCCl)N=O: 100

---

Assay: Toxicity of single-dose NCNU ip in normal mice (deaths)
Design: species or system CDFl mice
Conditions: mouse, in vivo, 100 mg/kg ip, at day 13
Quantity kind: mortality at 312 h (%)

- CC(C)(C)CNC(=O)N(CCCl)N=O: 100
